- Target under test: mGlyT-1b (Mus musculus)
- Construct: host or cells: Flp-in CHO cells, stably transfected
- Sequence (P28571 1-651 isoform P28571-2): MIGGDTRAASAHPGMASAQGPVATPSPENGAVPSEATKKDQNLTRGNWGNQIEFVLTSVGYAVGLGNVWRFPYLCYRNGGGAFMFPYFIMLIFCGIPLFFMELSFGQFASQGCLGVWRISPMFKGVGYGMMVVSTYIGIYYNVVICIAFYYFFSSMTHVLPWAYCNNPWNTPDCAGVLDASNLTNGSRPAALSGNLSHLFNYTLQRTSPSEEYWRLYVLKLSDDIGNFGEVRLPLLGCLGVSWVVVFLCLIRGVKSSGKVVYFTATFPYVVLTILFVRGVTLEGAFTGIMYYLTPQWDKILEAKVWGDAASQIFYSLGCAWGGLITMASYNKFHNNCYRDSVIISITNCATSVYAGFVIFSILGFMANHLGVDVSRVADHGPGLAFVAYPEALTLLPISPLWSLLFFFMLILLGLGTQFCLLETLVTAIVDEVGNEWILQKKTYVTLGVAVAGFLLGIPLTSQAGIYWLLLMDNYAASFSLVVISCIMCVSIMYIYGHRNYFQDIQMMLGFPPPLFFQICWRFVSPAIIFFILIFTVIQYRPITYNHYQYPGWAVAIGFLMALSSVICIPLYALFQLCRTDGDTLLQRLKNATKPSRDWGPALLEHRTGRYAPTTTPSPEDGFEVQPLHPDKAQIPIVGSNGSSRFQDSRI
- Procedure details: Glycine uptake inhibition assay (mGlyT-1b)
- Assay type: cell-based
- Condition notes: inhibition of [3H]-glycine uptake in Flp-in-CHO cells stably transfected with mGlyT1b cDNA; 20 min at 22° C.
Endpoint: IC50 (nM)

{"columns": ["Compound", "Endpoint", "Observed"],
 "data": [
  ["CC(=O)c1ccc(N2CCN(C(=O)c3cc([N+](=O)[O-])ccc3N3CCSCC3)CC2)c(F)c1", "IC50", 3.5],
  ["CNS(=O)(=O)c1ccc(N2CCOCC2)c(C(=O)N2CCN(c3ccc(C(F)(F)F)cc3F)CC2)c1", "IC50", 10],
  ["C=CCN(C)c1ccc([N+](=O)[O-])cc1C(=O)N1CCN(c2ccc(C(C)=O)cc2F)CC1", "IC50", 9],
  ["CC(=O)c1ccc(N2CCN(C(=O)c3cc([N+](=O)[O-])ccc3NC3CCCC3)CC2)c(F)c1", "IC50", 2.3],
  ["CNS(=O)(=O)c1ccc(N2CCCC2)c(C(=O)N2CCN(c3ccc(C#N)cc3F)CC2)c1", "IC50", 10],
  ["CS(=O)(=O)c1ccc(N2CCCCC2)c(C(=O)N2CCN(c3ccc(C#N)cc3F)CC2)c1", "IC50", 12],
  ["CS(=O)(=O)c1ccc(N2CCCCC2)c(C(=O)N2CCN(c3ccc(C#N)c(F)c3)CC2)c1", "IC50", 16],
  ["CC(=O)c1ccc(N2CCN(C(=O)c3cc([N+](=O)[O-])ccc3N3CCCC(C)C3)CC2)c(F)c1 (stereo not drawn)", "IC50", 7],
  ["CC(=O)c1ccc(N2CCN(C(=O)c3cc([N+](=O)[O-])ccc3N3CCC(C)CC3)CC2)c(F)c1", "IC50", 14],
  ["CNS(=O)(=O)c1ccc(N2CCCC2)c(C(=O)N2CCN(c3ccc(C(F)(F)F)cc3F)CC2)c1", "IC50", 6.5],
  ["CC(=O)c1ccc(N2CCN(C(=O)c3cc([N+](=O)[O-])ccc3N3CCCC(O)C3)CC2)c(F)c1 (stereo not drawn)", "IC50", 19],
  ["CC(=O)c1ccc(N2CCN(C(=O)c3cc([N+](=O)[O-])ccc3NCC3CC3)CC2)c(F)c1", "IC50", 13],
  ["CNS(=O)(=O)c1ccc(N2CCCC2)c(C(=O)N2CCN(c3ccc(C#N)cc3)CC2)c1", "IC50", 16],
  ["CC(=O)c1ccc(N2CCN(C(=O)c3cc([N+](=O)[O-])ccc3N3CC=CC3)CC2)c(F)c1", "IC50", 14],
  ["CNS(=O)(=O)c1ccc(N2CCCCC2)c(C(=O)N2CCN(c3ccc(C(F)(F)F)cc3F)CC2)c1", "IC50", 15],
  ["CNS(=O)(=O)c1ccc(N2CCCC2)c(C(=O)N2CCN(c3ccc(C(F)(F)F)cc3)CC2)c1", "IC50", 5],
  ["CNS(=O)(=O)c1ccc(N2CCCCC2)c(C(=O)N2CCN(c3ccc(C#N)c(F)c3)CC2)c1", "IC50", 10],
  ["CC(=O)c1ccc(N2CCN(C(=O)c3cc([N+](=O)[O-])ccc3NC3CCC3)CC2)c(F)c1", "IC50", 2.1],
  ["CNS(=O)(=O)c1ccc(N2CCCCC2)c(C(=O)N2CCN(c3ccc(C#N)cc3F)CC2)c1", "IC50", 14],
  ["CNS(=O)(=O)c1ccc(N2CCCC2)c(C(=O)N2CCN(c3ccc(C(C)=O)cc3F)CC2)c1", "IC50", 9],
  ["CC(=O)c1ccc(N2CCN(C(=O)c3cc([N+](=O)[O-])ccc3N3CCCCC3C)CC2)c(F)c1 (stereo not drawn)", "IC50", 6],
  ["N#Cc1cc(C(F)(F)F)ccc1N1CCN(C(=O)c2cc([N+](=O)[O-])ccc2N2CCOCC2)CC1", "IC50", 15],
  ["CNS(=O)(=O)c1ccc(N2CCCCC2)c(C(=O)N2CCN(c3ccc(C(F)(F)F)c(F)c3)CC2)c1", "IC50", 19],
  ["CC(=O)c1ccc(N2CCN(C(=O)c3cc([N+](=O)[O-])ccc3NC3CCCCC3)CC2)c(F)c1", "IC50", 10],
  ["CCN(CC)c1ccc([N+](=O)[O-])cc1C(=O)N1CCN(c2ccc(C(C)=O)cc2F)CC1", "IC50", 15],
  ["CC(=O)c1ccc(N2CCN(C(=O)c3cc([N+](=O)[O-])ccc3NCC(C)C)CC2)c(F)c1", "IC50", 3],
  ["CC(=O)c1ccc(N2CCN(C(=O)c3cc([N+](=O)[O-])ccc3N3CCCC3)CC2)c(F)c1", "IC50", 12],
  ["CC(=O)c1ccc(N2CCN(C(=O)c3cc([N+](=O)[O-])ccc3N3CCOCC3)CC2)c(F)c1", "IC50", 15],
  ["CNS(=O)(=O)c1ccc(N2CCOCC2)c(C(=O)N2CCN(c3ccc(C(F)(F)F)cc3)CC2)c1", "IC50", 8],
  ["CS(=O)(=O)c1ccc(N2CCCCC2)c(C(=O)N2CCN(c3ccc(C(F)(F)F)c(F)c3)CC2)c1", "IC50", 19]
]}
